- procedureText: in vivo
- Assay type: in vivo, mice (NMRI strain)
- testSettings: mouse, in vivo, po; 100 mg/kg administered orally; read-out: treated animals killed
propertyName: mortality (%)
Kindly answer with a numeric value in %, unit omitted.

Q: Need mortality of CN1CCOC(c2ccccc2)c2ccccc2C1 (stereo not shown) [Nefopam, reference compound] , thanks.
Ans: 60

----------
Kindly supply the reported Q (enteral activity: quotient of ED 100% for intraperitoneal and oral administration) values for the records listed here.
- Tested on: female mice (NMRI strain)
- procedureText: in vivo
- Format: in vivo
- testSettings: i.p. ED 100% / oral ED 100%; 30 min

Q: Need Q (enteral activity: quotient of ED 100% for intraperitoneal and oral administration) of COc1cccc([C@@]23CCCC[C@@H]2CN(C)CCO3)c1 (relative stereo) [Example 3] , thanks.
Ans: 0.67

Q: Now the molecule CN1CCOC(c2ccccc2)c2ccccc2C1 (stereo not shown) [Nefopam, reference compound]
Ans: 0.17

Q: Now the molecule COc1cccc([C@@]23CCCC[C@@H]2CN(C)CCO3)c1 (single isomer, unassigned) [9 (-)]
Ans: 0.63

Q: Now the molecule CC(=O)Oc1cccc([C@@]23CCCC[C@@H]2CN(C)CCO3)c1 (relative stereo) [Example 7 β]
Ans: 0.96

Q: Now the molecule COc1cccc([C@@]23CCCC[C@@H]2CN(C)CCO3)c1 (single isomer, unassigned) [9 (+)]
Ans: 0.71

Q: Now the molecule CN1CCO[C@]2(c3cccc(O)c3)CCCC[C@@H]2C1 (relative stereo) [Example 7]
Ans: 0.35

Q: Now the molecule COc1cccc([C@@]23CCC[C@@H]2CN(C)CCO3)c1 (relative stereo) [Example 6]
Ans: 0.49

----------
- procedureText: acute lethal dose (LD 50) for intraperitoneal administration
- Assay type: in vivo
- testSettings: in vivo, ip, read-out: LD 50
- Excerpt: The comparatively low toxicity of the novel compounds can also be deduced from the acute lethal dose (LD 50) for intraperitoneal administration (Table 2). The LD 50 values are from about 90% to 240% higher than those of Nefopam.
Each record is given true (1) if its reported LD50 is strictly below 100 mg/kg. Records at or above 100 mg/kg are given false (0).

Q: Quick check: does COc1cccc([C@@]23CCCC[C@@H]2CN(C)CCO3)c1 (single isomer, unassigned) [9 (-)] have LD50 under 100 mg/kg?
Ans: false (0)

Q: Now the compound COc1cccc([C@@]23CCC[C@@H]2CN(C)CCO3)c1 (relative stereo) [Example 6]
Ans: false (0)

Q: Now the compound CC(=O)Oc1cccc([C@@]23CCCC[C@@H]2CN(C)CCO3)c1 (relative stereo) [Example 7 β]
Ans: false (0)

Q: Now the compound CN1CCO[C@]2(c3cccc(O)c3)CCCC[C@@H]2C1 (relative stereo) [Example 7]
Ans: false (0)

Q: Now the compound COc1cccc([C@@]23CCCC[C@@H]2CN(C)CCO3)c1 (relative stereo) [Example 3]
Ans: false (0)

Q: Now the compound CN1CCOC(c2ccccc2)c2ccccc2C1 (stereo not drawn) [Nefopam, reference compound]
Ans: true (1)
